Please provide measured Cmin (7 hr conc.) for the entries that follow.
Details: mouse, in vivo, po, 50 mg/kg, 7 h, pH 2.3
Your answer is read as ng/mL, so omit the unit and give the number.

### Prompt Which Cmin (7 hr conc.) is listed for `C#CCNC(=O)c1ccccc1Sc1ccc2c(/C=C/c3ccccn3)n[nH]c2c1` ?
### Response 5

### Prompt Also, `C=CCONC(=O)c1ccccc1Sc1ccc2c(/C=C/c3ccccn3)n[nH]c2c1` please.
### Response 5

### Prompt Also, `O=C(c1cccc(NC(=O)c2ccccn2)c1)c1ccc2c(/C=C/c3ccccn3)n[nH]c2c1` please.
### Response 5

### Prompt Also, `O=C(Nc1cccc(C(=O)c2ccc3c(/C=C/c4ccccn4)n[nH]c3c2)c1)c1ccncc1` please.
### Response 6

### Prompt Also, `O=C(Nc1cccc(Cl)c1)c1ccccc1Sc1ccc2c(/C=C/c3ccccn3)n[nH]c2c1` please.
### Response 8

### Prompt Also, `Cc1cc(C(=O)Nc2cccc(C(=O)c3ccc4c(/C=C/c5ccccn5)n[nH]c4c3)c2)n[nH]1` please.
### Response 1

###

Details: mouse, in vivo, po, 25 mg/kg, pH 2.3
One threshold, 2 h, splits the recorded T1/2 values: lower ones are true (1), equal or higher ones are false (0).

### Prompt Problem: For the compound Cn1ccnc1/C=N/NC(=O)c1ccccc1Sc1ccc2c(/C=C/c3ccccn3)n[nH]c2c1 [36 (a)] , is T1/2 under 2 h?
### Response true (1)

### Prompt Also, CC(C)=CC(=O)Nc1cccc(C(=O)c2ccc3c(/C=C/c4ccccn4)n[nH]c3c2)c1 [41 (dd)] please.
### Response true (1)

### Prompt Also, O=C(NCc1ccncc1)c1ccccc1Sc1ccc2c(/C=C/c3ccccn3)n[nH]c2c1 [35 (p)] please.
### Response true (1)

### Prompt Also, COc1cccc(CNC(=O)c2ccccc2Sc2ccc3c(/C=C/c4ccccn4)n[nH]c3c2)c1 [35 (aa)] please.
### Response false (0)

### Prompt Also, CCONC(=O)c1ccccc1Sc1ccc2c(/C=C/c3ccccn3)n[nH]c2c1 [35 (dd)] please.
### Response true (1)

### Prompt Also, CCc1cc(C(=O)Nc2cccc(C(=O)c3ccc4c(/C=C/c5ccccn5)n[nH]c4c3)c2)n(C)n1 [41 (v)] please.
### Response false (0)

### Prompt Also, C=C(C)CNC(=O)c1ccccc1Sc1ccc2c(/C=C/c3ccccn3)n[nH]c2c1 [35 (ee)] please.
### Response false (0)

### Prompt Also, CONC(=O)c1ccccc1Sc1ccc2c(/C=C/c3ccccn3)n[nH]c2c1 [35 (r)] please.
### Response true (1)

### Prompt Also, CC(C)ONC(=O)c1cccc(F)c1Sc1ccc2c(/C=C/c3ccccn3)n[nH]c2c1 [37 (c)] please.
### Response true (1)

###

Subject Of Test: human FGF-R1 (Homo sapiens, UniProt P11362, C488A/C584S/L457V)
Sequence (P11362 456-766 L457V/C488A/C584S): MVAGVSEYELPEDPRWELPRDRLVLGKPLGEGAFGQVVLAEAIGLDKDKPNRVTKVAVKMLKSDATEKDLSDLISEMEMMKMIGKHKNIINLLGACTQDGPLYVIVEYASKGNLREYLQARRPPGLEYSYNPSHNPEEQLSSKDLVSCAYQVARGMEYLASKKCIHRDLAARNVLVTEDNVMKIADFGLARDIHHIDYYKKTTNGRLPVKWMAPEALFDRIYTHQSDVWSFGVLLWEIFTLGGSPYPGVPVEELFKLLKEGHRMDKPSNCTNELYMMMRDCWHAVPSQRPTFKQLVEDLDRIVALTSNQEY
Measurement Description: FGF-R spectrophotometric assay
Assay type: biochemical
Details: Table 1; compound concentration 1 µM; read-out: FGF-P* (% inhibition)
Classify on inhibition at 1 µM using 0 = under 60%, 1 = from 60% up to 80%, 2 = 80% and over

### Prompt Could you tell me which band O=C(NC1CC1)c1cccc(F)c1Sc1ccc2c(/C=C/c3ccccn3)n[nH]c2c1 [Reference Example 37(b)] belongs to?
### Response 0

### Prompt Also, Cc1cc(C(=O)Nc2cccc(Oc3ccc4c(/C=C/c5ccccn5)n[nH]c4c3)c2)nn1C [Reference Example 31(b)] please.
### Response 2

### Prompt Also, Cn1ccnc1/C=N/NC(=O)c1ccccc1Sc1ccc2c(/C=C/c3ccccn3)n[nH]c2c1 [Reference Example 36(a)] please.
### Response 0

### Prompt Also, Cn1nc(C(C)(C)C)cc1C(=O)Nc1cccc(C(=O)c2ccc3c(/C=C/c4ccccn4)n[nH]c3c2)c1 [Reference Example 41(n)] please.
### Response 2

### Prompt Also, `O=C(c1cccc(NC(=O)c2cc(Cl)ccn2)c1)c1ccc2c(/C=C/c3ccccc3)n[nH]c2c1` please.
### Response 0

### Prompt Also, CC(C)=CC(=O)Nc1cccc(C(=O)c2ccc3c(/C=C/c4ccccn4)n[nH]c3c2)c1 [Reference Example 41(dd)] please.
### Response 1

### Prompt Also, O=C(c1cccc(NC(=O)c2cc(Cl)ccn2)c1)c1ccc2c(/C=C/c3ccccn3)n[nH]c2c1 [Reference Example 41(z)] please.
### Response 1

### Prompt Also, O=C(Nc1cccc(Oc2ccc3c(/C=C/c4ccccn4)n[nH]c3c2)c1)c1ccccc1 [Reference Example 31(a)] please.
### Response 2

### Prompt Also, Cn1ccnc1C(=O)Nc1cccc(Oc2ccc3c(/C=C/c4ccccn4)n[nH]c3c2)c1 [Reference Example 31(e)] please.
### Response 1

### Prompt Also, O=C(NOCC1CC1)c1ccccc1Sc1ccc2c(/C=C/c3ccccn3)n[nH]c2c1 [Reference Example 35(s)] please.
### Response 1

### Prompt Also, C=CCn1nc(C)cc1C(=O)Nc1cccc(C(=O)c2ccc3c(/C=C/c4ccccn4)n[nH]c3c2)c1 [Reference Example 41(t)] please.
### Response 2

### Prompt Also, O=C(Nc1cccc(C(=O)c2ccc3c(-c4nc5ccccc5[nH]4)n[nH]c3c2)c1)c1ccccc1 [Reference Example 42(b)] please.
### Response 0

### Prompt Also, O=C(Nc1ccccc1)c1ccccc1Sc1ccc2c(/C=C/c3ccccn3)n[nH]c2c1 [Reference Example 33(c)] please.
### Response 1

### Prompt Also, COc1cc(C(=O)Nc2cccc(C(=O)c3ccc4c(/C=C/c5ccccn5)n[nH]c4c3)c2)cc(Cl)n1 [Reference Example 41(u)] please.
### Response 1

### Prompt Also, CCn1nc(C)cc1C(=O)Nc1cccc(Oc2ccc3c(/C=C/c4c[nH]c(C)n4)n[nH]c3c2)c1 [Reference Example 32(c)] please.
### Response 2

### Prompt Also, CC(C)(C)c1ccc(C(=O)Nc2cccc(C(=O)c3ccc4c(/C=C/c5ccccn5)n[nH]c4c3)c2)cc1 [Reference Example 41(s)] please.
### Response 2

### Prompt Also, CCc1cc(C(=O)Nc2cccc(C(=O)c3ccc4c(/C=C/c5ccccn5)n[nH]c4c3)c2)n(C)n1 [Reference Example 41(v)] please.
### Response 1

###

Subject Of Test: human FGF-R1 (Homo sapiens, UniProt P11362, C488A/C584S/L457V)
Measurement Description: FGF-R spectrophotometric assay
Type: biochemical
Details: Table 1; compound concentration 1 µM; read-out: FGF-P* (% inhibition)
Assay Endpoint: inhibition at 1 µM (%)
Your answer is read as %, so omit the unit and give the number.

### Prompt State its inhibition at 1 µM on human FGF-R1 (Homo sapiens, UniProt P11362, C488A/C584S/L457V): O=C(Nc1cccc(Oc2ccc3c(/C=C/c4ccco4)n[nH]c3c2)c1)c1ccccc1 [Reference Example 30(c)]
### Response 82

### Prompt Also, CC(C)NC(=O)c1ccccc1Sc1ccc2c(/C=C/c3ccccn3)n[nH]c2c1 [Reference Example 35(b)] please.
### Response 59

### Prompt Also, O=C(N/N=C/C(F)(F)F)c1ccccc1Sc1ccc2c(/C=C/c3ccccn3)n[nH]c2c1 [Reference Example 36(c)] please.
### Response 60

### Prompt Also, CCc1cc(C(=O)Nc2cc(C(=O)c3ccc4c(/C=C/c5ccccn5)n[nH]c4c3)ccc2C)n(C)n1 [Reference Example 41(jj)] please.
### Response 81

Numbers sourced from patent EP1614683B1.
